Numbers sourced from ChEMBL document CHEMBL5390303.

protocol: Tmax in male Sprague-Dawley rat plasma at 10 mg/kg, po incubated for 24 hrs by LC-MS/MS analysis
Type: ADME, organism-based
assayEndpoint: Tmax
Answer format: value, then unit.

[Q] Item under review: O=c1nc(NC2CC2)n2ccc(C(F)(F)F)cc2c1-c1cccnc1F . Reported Tmax?
[A] 3.3 h

====

systemName: S-adenosylmethionine synthase isoform type-2 (Homo sapiens)
Sequence (P31153 whole entry, canonical isoform): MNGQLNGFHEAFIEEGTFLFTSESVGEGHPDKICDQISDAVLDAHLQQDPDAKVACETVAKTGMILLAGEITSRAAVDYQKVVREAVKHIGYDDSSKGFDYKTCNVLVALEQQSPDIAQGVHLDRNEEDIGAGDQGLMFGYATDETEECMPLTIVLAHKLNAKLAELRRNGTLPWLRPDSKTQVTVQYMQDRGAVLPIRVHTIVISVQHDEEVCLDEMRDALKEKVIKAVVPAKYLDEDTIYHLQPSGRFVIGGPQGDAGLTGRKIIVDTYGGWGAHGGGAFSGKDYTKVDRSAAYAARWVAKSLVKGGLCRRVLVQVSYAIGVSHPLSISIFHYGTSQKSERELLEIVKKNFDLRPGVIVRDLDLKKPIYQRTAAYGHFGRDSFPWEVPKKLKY
protocol: Inhibition of MAT2A (unknown origin) using L-methionine as substrate preincubated for 30 mins followed by substrate addition measured after 60 mins by colorimetric assay
assayEndpoint: IC50 (µM)
Give bare numbers, in µM.

Recorded IC50, per entry:
* CNc1nc(=O)c(-c2ccccc2F)c2cc(C(F)(F)F)ccn12 | 0.045
* O=c1nc(N2CCCC2)n2ccc(C(F)(F)F)cc2c1-c1ccccc1F | 0.531
* CNc1cc(=O)n(-c2ccccc2Cl)c2nc(C(F)(F)F)ccc12 | 0.252

Now look at this entry.
[Q] Which IC50 value belongs to CNc1nc(=O)c(-c2ccccc2Cl)c2cc(C(F)F)ccn12 ?
[A] 0.049
